assayed system: human FXR (Homo sapiens, UniProt Q96RI1)
Construct: expressed in transfected cells; host or cells: HEK293 cells stably carrying a 5xGal4-response-element firefly luciferase reporter, transiently transfected with pcDNA3.1-Gal4-FXR
Sequence (Q96RI1 262-486 limits assumed): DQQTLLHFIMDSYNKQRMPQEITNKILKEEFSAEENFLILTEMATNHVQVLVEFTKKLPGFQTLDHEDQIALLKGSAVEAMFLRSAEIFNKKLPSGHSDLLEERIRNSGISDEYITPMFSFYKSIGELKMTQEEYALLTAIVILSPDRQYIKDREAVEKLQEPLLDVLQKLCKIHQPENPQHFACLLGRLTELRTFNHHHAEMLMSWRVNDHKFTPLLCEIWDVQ
measurement protocol: transient human FXR/Gal4-luciferase reporter assay
Type: cell-based
particulars: Gal4-hFXR fusion construct, luciferase reporter HEK293 cells; response relative to 8 μM GW-4064; unit inferred
pEC50: −log10 of the molar value.
Returns label 1 if the recorded pEC50 is greater than or equal to 7, and label 0 otherwise.

INSERT INTO assay_data (molecule, label) VALUES
  ('O=C(O)c1cc(C(F)(F)F)c2cc(N3CC4(CC(/C=C/c5c(-c6c(Cl)cccc6Cl)noc5C5CC5)C4)C3)ccc2n1', 'label 1'),
  ('O=C(O)c1cc(OCC2CC3(CC(/C=C/c4c(-c5c(Cl)cncc5Cl)noc4C4CC4)C3)C2)n(C2CC2)n1 (stereo not shown)', 'label 1'),
  ('NC(=O)c1cccc(OCC2CC3(CC(/C=C/c4c(-c5ccccc5C(F)(F)F)noc4C4CC4)C3)C2)c1 (stereo not shown)', 'label 0'),
  ('O=C(O)c1ncc(OCC2CC3(CC(/C=C/c4c(-c5ccccc5C(F)(F)F)noc4C4CC4)C3)C2)cc1OC1CCC1 (stereo not shown)', 'label 1'),
  ('O=C(O)c1cc(C(F)(F)F)c2cc(OCC3CC4(CC(/C=C/c5c(-c6c(Cl)cncc6Cl)noc5C5CC5)C4)C3)ccc2n1 (stereo not shown)', 'label 1'),
  ('CN1CCN(c2cc(C(=O)O)nc3ccc(OCC4CC5(CC(/C=C/c6c(-c7c(Cl)cncc7Cl)noc6C6CC6)C5)C4)cc23)CC1 (stereo not shown)', 'label 0');

Values from patent US11286252B2
